Biological target: Fyn (UniProt P06241)
Sequence (P06241 whole entry, looked up): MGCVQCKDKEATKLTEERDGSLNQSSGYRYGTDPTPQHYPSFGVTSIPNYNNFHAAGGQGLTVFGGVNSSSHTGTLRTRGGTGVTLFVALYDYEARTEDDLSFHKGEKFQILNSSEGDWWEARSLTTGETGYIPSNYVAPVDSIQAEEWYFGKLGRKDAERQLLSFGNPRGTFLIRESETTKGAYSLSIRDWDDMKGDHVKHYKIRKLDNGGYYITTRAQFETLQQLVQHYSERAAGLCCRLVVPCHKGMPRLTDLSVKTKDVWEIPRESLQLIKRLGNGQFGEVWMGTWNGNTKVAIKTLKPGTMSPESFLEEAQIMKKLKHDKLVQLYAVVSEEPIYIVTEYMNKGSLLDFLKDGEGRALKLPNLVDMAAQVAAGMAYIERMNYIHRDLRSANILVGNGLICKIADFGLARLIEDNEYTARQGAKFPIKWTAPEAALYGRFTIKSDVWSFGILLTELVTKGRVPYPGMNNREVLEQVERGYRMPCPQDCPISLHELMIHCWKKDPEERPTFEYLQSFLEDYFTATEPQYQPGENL
Test: phosphorylation enrichment, bacterial display (enrichment ratio); higher = better substrate or ligand; peptides without Tyr show the background;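 also: 11-residue human phosphosite peptides and single-mutation variants displayed on the E. coli surface, counted by deep sequencing, each peptide's frequency after selection divided by its frequency in the unselected input library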;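 also: frequency after pTyr selection over input frequency; kinase dosed for 20-30% of maximal phosphorylation in three min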
Class class 1: phosphorylation enrichment at least 0.5. Class class 0: phosphorylation enrichment below 0.5.

// inclusive: phosphorylation enrichment at least 0.5? input: RRIHSYRGFLW [VHL_Y112_H115Y_YF]
class 1

// inclusive: phosphorylation enrichment at least 0.5? input: GFSRHCEDGFP [CTNND1_Y217_Y217C_YF]
class 0

// inclusive: phosphorylation enrichment at least 0.5? input: LTERDYSFVTT [ACTG2_Y199_G198D]
class 1

// inclusive: phosphorylation enrichment at least 0.5? input: CLSHCYFSQIR [MCM3AP_Y873_L870S]
class 0

// inclusive: phosphorylation enrichment at least 0.5? input: NDHHVYLEGTL [ALDOB_Y223]
class 0

// inclusive: phosphorylation enrichment at least 0.5? input: GVTLLCYGRYN [ADGRD1_Y85_Y85C]
class 1
